Just for reference, patent US20240251792A1 is where these values come from.

- System: weeds and/or crops
- procedureDetails: Post-emergence biological efficacy (Table 4)
- Type: in vivo
- cond: 312 h, ZEAMX, 1000 g/ha, evaluated after 13 days, read-out: damage to plant ZEAMX (100=total damage; 0=no damage)
Measured pest or weed control at 1000 g/ha values are reported for all entries that follow.
Provide the measurement as a number trailed by its unit.

>>> df
                                   compound       subjectoftest                   quantitymeasured  result
0  O=C(O)C(F)(F)c1cccc2cccnc12 [Compound 1-403]  weeds and/or crops  pest or weed control at 1000 g/ha     20%
1  Cc1ccc2onc(C)c2c1C(F)(F)C(=O)O [Compound 1-396]  weeds and/or crops  pest or weed control at 1000 g/ha     10%
2  N#Cc1cccc(C(F)(F)C(=O)O)c1F [Compound 1-192]  weeds and/or crops  pest or weed control at 1000 g/ha     20%
3  O=C(O)C(F)(F)c1cc(-c2ccc(F)cc2)cc(Cl)c1Cl [Compound 1-78]  weeds and/or crops  pest or weed control at 1000 g/ha     30%
4  Nc1cc(Cl)c(Cl)c(C(F)(F)C(=O)O)c1 [Compound 1-77]  weeds and/or crops  pest or weed control at 1000 g/ha     10%
5  O=C(O)C(F)(F)c1c(Cl)ccc2ccccc12 [Compound 1-401]  weeds and/or crops  pest or weed control at 1000 g/ha     10%

According to the records, this compound O=C(O)C(F)(F)c1cccc2cccc(Cl)c12 [Compound 1-416] displays pest or weed control at 1000 g/ha of 20%

Item: N#Cc1c(F)cccc1C(F)(F)C(=O)O [Compound 1-261] | pest or weed control at 1000 g/ha: 20%

Reported pest or weed control at 1000 g/ha ( COc1c(Cl)cccc1C(F)(F)C(=O)O [Compound 1-317] ) = 60%

Briefly, pest or weed control at 1000 g/ha measured for COc1cccc(C(F)(F)C(=O)O)c1F [Compound 1-190] : 10%

###

- System: weeds and/or crops
- procedureDetails: Post-emergence biological efficacy (Table 4)
- Type: in vivo
- cond: Amaranthus retroflexus, 312 h, AMARE, 1000 g/ha, evaluated after 13 days, read-out: damage to plant AMARE (100=total damage; 0=no damage)
quantityMeasured: pest or weed control at 1000 g/ha (%)
Record the value in %, omitting the unit from your answer.

These recorded examples may help you get a feel for the data.
>>> df
                            smilesnotation                   quantitymeasured  endpointunit  readoutnumber
0              COc1cccc(Cl)c1C(F)(F)C(=O)O  pest or weed control at 1000 g/ha             %             70
1                 O=C(O)C(F)(F)c1cccc(O)c1  pest or weed control at 1000 g/ha             %             20
2           Nc1c(Cl)cc(Cl)cc1C(F)(F)C(=O)O  pest or weed control at 1000 g/ha             %             60
3               COc1c(C)cccc1C(F)(F)C(=O)O  pest or weed control at 1000 g/ha             %             80
4  CCOC(=O)C(F)(F)c1c(Cl)cccc1[N+](=O)[O-]  pest or weed control at 1000 g/ha             %             50
5              COc1c(Cl)cccc1C(F)(F)C(=O)O  pest or weed control at 1000 g/ha             %            100
6           CCOC(=O)C(F)(F)c1c(F)ccc(F)c1O  pest or weed control at 1000 g/ha             %             10
7    O=C(O)C(F)(F)c1cccc(Cl)c1[N+](=O)[O-]  pest or weed control at 1000 g/ha             %            100

Given item CCc1cccc(C(F)(F)C(=O)O)c1Cl , the value recorded as its pest or weed control at 1000 g/ha is 50

Documented pest or weed control at 1000 g/ha of COC(=O)C(F)(F)c1c(Cl)ccc2cc(Cl)cnc12 : 70

Value of measured pest or weed control at 1000 g/ha for the entry O=C(O)C(F)(F)c1c(Cl)ccc2ccccc12 : 70

Reported pest or weed control at 1000 g/ha ( N#Cc1c(F)ccc(C(F)(F)C(=O)O)c1Cl ) = 90

// pest or weed control at 1000 g/ha lookup, compound = O=C(O)C(F)(F)c1cccc2cccnc12 , result: 90

###

- Test system: AMARE
- procedureDetails: Biological efficacy, post-emergence glasshouse test (Table 2)
- Assay type: in vivo
- cond: 1000 g/ha, after 12 days
# score (100=total damage to plant, 0=no damage to plant) annotations
Answer field: number only, no words.

Reference set, count: 3
                smilesnotation  readoutnumber
0  CCc1c(Cl)cccc1C(F)(F)C(=O)O             90
1   COc1cc(C(F)(F)C(=O)O)ccc1C             40
2     CCOc1ccccc1C(F)(F)C(=O)O             80

# lookup: CC(C)Oc1ccccc1C(F)(F)C(=O)O on AMARE, score (100=total damage to plant, 0=no damage to plant) = 80

Observed score (100=total damage to plant, 0=no damage to plant), AMARE, COc1ccc(Cl)cc1C(F)(F)C(=O)O : 50

Known value: AMARE score (100=total damage to plant, 0=no damage to plant) of the compound O=C(O)C(F)(F)c1ccc(OC(F)F)cc1F equals 30

###

- Tested on: AMARE
- procedureDetails: Pre-emergence biological efficacy (Table 3)
- Type: in vivo
- cond: Amaranthus retroflexus, 312 h, 1000 g/ha, after 13 days, read-out: evaluation (100=total damage to plant; 0=no damage to plant)
quantityMeasured: pest or weed control at 1000 g/ha (%)
Respond numerically; units are % and should not be typed.

Study these solved cases before continuing.
>>> df
                          smilesnotation  subjectoftest                   quantitymeasured  readoutnumber
0    COc1c(Cl)cc(Cl)c(Cl)c1C(F)(F)C(=O)O          AMARE  pest or weed control at 1000 g/ha             60
1         Nc1ccc(Cl)c(C(F)(F)C(=O)O)c1Cl          AMARE  pest or weed control at 1000 g/ha             20
2  O=C(O)C(F)(F)c1cc(-c2ccc(F)cc2)ccc1Cl          AMARE  pest or weed control at 1000 g/ha              0

Continue with the next compound.
The reported pest or weed control at 1000 g/ha of the compound COc1cccc(C(F)(F)C(=O)O)c1Cl was 70

###

Measured pest or weed control at 1000 g/ha by item
- Tested on: SETFA
- procedureDetails: Pre-emergence biological efficacy (Table 3)
- Format: in vivo
- cond: Setaria faberi, 312 h, 1000 g/ha, after 13 days, read-out: evaluation (100=total damage to plant; 0=no damage to plant)
Form entry: value (%) — number only.

The cases that follow already have their pest or weed control at 1000 g/ha on record.
In [3]: df
Out[3]:
                                   compound  subjectoftest                   quantitymeasured  readoutnumber
0  N#Cc1c(F)cccc1C(F)(F)C(=O)O [Compound 1-261]          SETFA  pest or weed control at 1000 g/ha             10
1  O=C(O)C(F)(F)c1cccc2c1CCO2 [Compound 1-420]          SETFA  pest or weed control at 1000 g/ha              0
2  O=C(O)C(F)(F)c1c(Cl)ccc2cc(Cl)cnc12 [Compound 1-418]          SETFA  pest or weed control at 1000 g/ha             50

Lab note: N#Cc1cccc(C(F)(F)C(=O)O)c1F [Compound 1-192] gave pest or weed control at 1000 g/ha of 50

Data point: O=C(O)C(F)(F)c1cccc(OC(F)F)c1Cl [Compound 1-459] ; pest or weed control at 1000 g/ha = 100

###

- System: SETFA
- procedureDetails: Pre-emergence biological efficacy (Table 3)
- Assay type: in vivo
- cond: Setaria faberi, 312 h, 1000 g/ha, after 13 days, read-out: evaluation (100=total damage to plant; 0=no damage to plant)
Consider the following compounds and their measured pest or weed control at 1000 g/ha readings.
# include the unit after the value

Check out these entries, answers already filled in.
In [3]: df
Out[3]:
                    smilesnotation                   quantitymeasured  result
0       COc1cccc(C(F)(F)C(=O)O)c1F  pest or weed control at 1000 g/ha     20%
1  COc1c(Cl)ccc(Cl)c1C(F)(F)C(=O)O  pest or weed control at 1000 g/ha     10%
2      Cc1cccc(C(F)(F)C(=O)O)c1C#N  pest or weed control at 1000 g/ha      0%
3      COc1cccc(Cl)c1C(F)(F)C(=O)O  pest or weed control at 1000 g/ha      0%
4      O=C(O)C(F)(F)c1cccc2ccccc12  pest or weed control at 1000 g/ha     20%

Turning now to a further record.
For reference, reported pest or weed control at 1000 g/ha for N#Cc1c(F)ccc(C(F)(F)C(=O)O)c1Cl stands at 10%
